src = patent US20140120095A1

# TGT: T1, recombinant human VEGF165 (human, UniProt P15692-4 27-191, biotinylated in the competition assays)
# T1 construct: Bought protein; also called hVEGF165; rhVEGF165
# PROTOCOL SUMMARY: SPR Biacore, immobilised hVEGF165, two state reaction model
QUANTITY MEASURED: ka1

Q) Which ka1 is listed for VEGFBII024 (VHH, not shown: small tags and cut ends, Bivalent anti-VEGF VHH; also called VEGFBII23B04-40GS-86H09) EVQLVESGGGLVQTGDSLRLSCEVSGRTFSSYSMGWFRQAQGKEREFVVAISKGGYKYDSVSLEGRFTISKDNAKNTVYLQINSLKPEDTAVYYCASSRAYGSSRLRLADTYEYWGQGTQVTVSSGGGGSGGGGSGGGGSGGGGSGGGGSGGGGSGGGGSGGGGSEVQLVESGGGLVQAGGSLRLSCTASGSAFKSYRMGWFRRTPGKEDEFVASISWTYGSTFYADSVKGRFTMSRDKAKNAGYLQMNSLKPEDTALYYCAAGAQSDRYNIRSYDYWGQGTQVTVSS ?
A) 300000 M⁻¹ s⁻¹
